Target: T1, hsRosR (Halobacterium salinarum (Halobacterium …, UniProt Q9HSF4 1-116))
T1 sequence: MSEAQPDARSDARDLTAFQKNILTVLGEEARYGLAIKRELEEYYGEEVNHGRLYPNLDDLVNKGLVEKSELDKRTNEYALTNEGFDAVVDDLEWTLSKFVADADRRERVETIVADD
Test: fluorescence anisotropy
Recorded measurements of Kd, one per entry
Report the figure in µM without appending any unit label.

Worked cases, answers included:
binder="S1 (28 bp) (dsDNA) DNA 1: GCGAGGTGTAAATTGTCTGACATGTTCT DNA 2: AGAACATGTCAGACAATTTACACCTCGC" endpointresult=0.0535
binder="S1 (25 bp) (dsDNA) DNA 1: GTGTAAATTGTCTGACATGTTCTTA DNA 2: TAAGAACATGTCAGACAATTTACAC" endpointresult=0.0372

Ask: Data request, read-out Kd, for S1 (35 bp) (dsDNA) DNA 1: GCGAGGTGTAAATTGTCTGACATGTTCTTATTGGG DNA 2: CCCAATAAGAACATGTCAGACAATTTACACCTCGC
Reply: 0.0493
